- measurement.description: Intrinsic clearance in human liver microsomes assessed per mg protein at 1 uM measured after 60 mins
- Type: ADME, Microsome
- conditions.used: read-out: CLH
value.type: microsomal CLint at 1 µM

Give me measured microsomal CLint at 1 µM, please, for this compound: CCCC[C@@H](CCO)Nc1nc(N)ncc1OC < 4 µL/min/mg

* * *

- measurement.description: Cmax in Sprague-Dawley rat plasma at 10 mg/kg, po
- Format: ADME, organism-based
- Parameters: dose 10 mg/kg, route oral
value.type: Cmax
Include the unit after the number when you answer.

Give me measured Cmax, please, for this molecule: CCCC[C@@H](CCO)Nc1nc(N)ncc1OC 65 ng/mL
